MEASUREMENT_TARGET: FLNA pentapeptide of SEQ ID NO: 1 (Bn-VAKGL) (Homo sapiens, UniProt P21333)
MEASUREMENT_PROTOCOL: FITC-NLX-based FLNA screening assay (inhibition of FITC-naloxone binding to Bn-VAKGL on streptavidin plates)
REPORTED_CONDITIONS: read-out: Percent Binding Inhibition, FLNA-binding compound 0.1 μM; 10 nM FITC-NLX
MEASURED_QUANTITY: inhibition at 0.1 µM (%)
One number for each entry, in %.

CC1CCC(C(C)C)C(OCC(O)CN2CCCC2)C1 (stereo not shown) [Compound A0001] ... 45.6

Below is a list of compounds. For each, state its recorded inhibition at 0.1 µM.
1. Cc1cccc(S(=O)(=O)N2CCC3(CC2)OCCN3S(=O)(=O)c2cccc(C)c2)c1 [Compound C0014]
2. COc1c2c(cc3c1C(CC(=O)Cc1ccc(Br)cc1)[N+](C)(C)CC3)OCO2 (stereo not shown) [Compound B0011]
3. CC(=O)c1ccc(S(=O)(=O)N2CCC3(CC2)NC(=O)C(Cc2cnc[nH]2)N3S(=O)(=O)c2ccc(C(C)=O)cc2)cc1 (stereo not shown) [Compound C0084M]

[38.8, 50.3, 53.7]
